Listed below: inhibition of growth at 10 µM values for each entry.
- Test system: RXF 393
- experimental-protocol: Cytotoxicity against Homo sapiens (human) RXF393 cells assessed as growth inhibition at 10 uM after 48 hr by coulter counter analysis
- Type: functional
- condition-parameters: RXF 393, 48 h, read-out: GI

Examples with answers:
COc1ccc(C2C3=C(CCCC3)Nc3nn[nH]c(=O)c32)cc1OC (stereo unspecified) | 14.4%
COc1ccc(C2C3=C(CCCC3)Nc3[nH]c(=S)nc(NC(N)=S)c32)cc1OC (stereo unspecified) | 14.3%

Exercise: Field: inhibition of growth at 10 µM (RXF 393). Entry: COc1ccc(C2C3=C(CCCC3)Nc3nc(CC#N)[nH]c(=O)c32)cc1OC (stereo unspecified)
Solution: < 10%

Exercise: Next up: COc1ccc(C2C3=C(CCCC3)Nc3ncn4nc(-c5ccc(O)cc5)nc4c32)cc1OC (stereo unspecified)
Solution: < 10%

Exercise: Next up: O=c1[nH]c(-c2ccccc2)nc2c1C(c1ccc(Cl)cc1)C1=C(CCCC1)N2 (stereo unspecified)
Solution: < 10%

Exercise: Next up: COc1ccc(-c2nc3c(c(=O)[nH]2)C(c2ccc(Cl)cc2)C2=C(CCCC2)N3)cc1OC (stereo unspecified)
Solution: < 10%
